Target: Recombinant human Met (c-Met) (Homo sapiens)
Construct: purchased Invitrogen PV3143
Sequence (P08581 956-1390 limits assumed): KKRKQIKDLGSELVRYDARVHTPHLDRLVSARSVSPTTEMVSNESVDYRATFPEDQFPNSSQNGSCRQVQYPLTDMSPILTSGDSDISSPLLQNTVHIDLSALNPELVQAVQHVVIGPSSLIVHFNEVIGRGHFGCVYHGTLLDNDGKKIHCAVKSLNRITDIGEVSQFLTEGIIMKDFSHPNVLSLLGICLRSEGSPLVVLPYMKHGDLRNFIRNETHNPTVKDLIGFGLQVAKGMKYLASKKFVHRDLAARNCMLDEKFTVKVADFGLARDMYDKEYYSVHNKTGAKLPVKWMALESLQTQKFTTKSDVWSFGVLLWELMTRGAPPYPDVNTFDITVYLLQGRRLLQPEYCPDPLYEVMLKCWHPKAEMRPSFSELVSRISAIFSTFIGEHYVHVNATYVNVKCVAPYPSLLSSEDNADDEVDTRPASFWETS
Assay: Inhibition of c-Met kinase activity using Transcreener FP assay
Type: biochemical
Details: Poly E4Y substrate, 28° C. 45 min, read-out: IC50, inhibition of c-Met kinase activity
Exercise: state measured IC50 for each of the compounds provided.

// query Provide measured IC50 value, entry: `OCCn1cc(-c2cnc3nnn(Cc4ccn5ncc(CO)c5c4)c3n2)cn1`
// result 1 to 100 nM

// query Supply measured IC50 of `CS(=O)(=O)Nc1ccc(-c2ccc3nnn(Cc4ccc5ncccc5c4)c3n2)cn1` in your reply.
// result 1 to 100 nM

// query Name the recorded IC50 of the compound listed here: `COCCOc1cccc(Nc2cnc3nnn(Cc4ccc5ncccc5c4)c3n2)n1`
// result 1 to 100 nM

// query Quickly give me recorded IC50 for CC(c1ccc2nccn2c1)n1nnc2ncc(-c3cnn(CC(F)(F)F)c3)nc21 (stereo not drawn)
// result 1 to 100 nM

// query Report IC50, nothing else, for this compound: `c1cc2sc(Cn3nnc4ncc(-c5cnn(C6CCOCC6)c5)nc43)cc2cn1`
// result 100 to 1000 nM

// query Tell us which IC50 value is on record for `N#CCn1cc(-c2cnc3nnn(Cc4ccc5nccn5c4)c3n2)cn1`
// result 1 to 100 nM

// query Return IC50 (reported value) for this compound: `CNc1cc(Nc2cnc3nnn(Cc4ccc5ncccc5c4)c3n2)ccn1`
// result 100 to 1000 nM

// query Query IC50 for `O[C@@H]1CCC[C@H]1Nc1ccnc(Nc2ccc3nnn(Cc4ccc5ncccc5c4)c3n2)c1`
// result 100 to 1000 nM

// query Recall and state the measured IC50 for `COc1ccc(-c2cnc3nnn(Cc4ccc5ncnn5c4)c3n2)cc1` .
// result 1 to 100 nM

// query Report IC50, nothing else, for this compound: `Cc1ccc(Nc2cnc3nnn(Cc4ccc5ncccc5c4)c3n2)cn1`
// result 1 to 100 nM

// query Name the recorded IC50 of the compound listed here: `N#Cc1ccc(-c2ccc3nnn(Cc4ccc5ncccc5c4)c3n2)cn1`
// result 100 to 1000 nM

// query Determine from records and report IC50 for `Cn1cc(-c2ccc3nnn(Cc4ccc5nccn5c4)c3n2)cn1`
// result 1 to 100 nM

// query Give the value of IC50 reported for the following: `CCn1cc(-c2ccc3nnn(Cc4ccc5ncccc5c4)c3n2)cn1`
// result 1 to 100 nM

// query Let me know recorded IC50 for `CC(=O)Nc1ccc(-c2ccc3nnn(Cc4ccc5ncccc5c4)c3n2)cn1` , thanks.
// result 1 to 100 nM

// query Given the compound `CC(C)n1cc(-c2cnc3nnn(Cc4cc5[nH]ncc5s4)c3n2)cn1` , write its reported IC50.
// result 1 to 100 nM

// query Using the record for `OCCn1cc(-c2cnc3nnn(Cc4ccn5ncnc5c4)c3n2)cn1` , state its measured IC50.
// result 100 to 1000 nM

// query Entry CC(O)Cn1cc(-c2ccc3nnn(Cc4ccc5ncccc5c4)c3n2)cn1 (stereo not drawn) needs its IC50 filled in; supply it.
// result 100 to 1000 nM

// query Tell me its IC50 given `Cc1csc(Nc2cnc3nnn(Cc4ccc5ncccc5c4)c3n2)n1` as the entry.
// result 1 to 100 nM

// query Supply IC50 value. Item: `O[C@@H]1CCC[C@H]1Nc1cc(Nc2cnc3nnn(Cc4ccc5ncccc5c4)c3n2)ccn1`
// result 1 to 100 nM

// query Quick one: give measured IC50 for `CC(C)n1cc(-c2ccc3nnn(Cc4ccc5nccn5c4)c3n2)cn1`
// result 1 to 100 nM

// query Report IC50 for `CS(=O)(=O)Nc1cccc(-c2ccc3nnn(Cc4ccc5ncccc5c4)c3n2)c1`
// result 1 to 100 nM

// query Read the entry `N#Cc1ccc(-c2cnc3nnn(Cc4ccn5nccc5c4)c3n2)cn1` and write its reported IC50.
// result 1 to 100 nM

// query Name the recorded IC50 of the item `CCn1cc(-c2cnc3nnn(Cc4cc5[nH]ncc5s4)c3n2)cn1` in your answer.
// result 1 to 100 nM

// query Using known records, supply IC50 for `c1c[nH]c(-c2ccc3nnn(Cc4ccc5ncccc5c4)c3n2)c1`
// result 100 to 1000 nM

// query State its IC50: OC1CCCC1n1cc(-c2ccc3nnn(Cc4ccc5ncccc5c4)c3n2)cn1 (stereo not drawn)
// result 100 to 1000 nM

// query Give IC50 for the following compound: `c1cnc2ccc(Cn3nnc4ccc(-c5cnn(C6CCOCC6)c5)nc43)cc2c1`
// result 100 to 1000 nM

// query Give recorded IC50. `Clc1ccnc(Nc2cnc3nnn(Cc4ccc5ncccc5c4)c3n2)c1`
// result 1 to 100 nM

// query Assign IC50 to the following record: `c1csc(-c2cnc3nnn(Cc4cc5cccnc5s4)c3n2)c1`
// result 100 to 1000 nM

// query Identify measured IC50 associated with `CN(c1ccnc(C#N)c1)c1cnc2nnn(Cc3ccc4ncccc4c3)c2n1`
// result 1 to 100 nM

// query Please report IC50 for the following compound: `C[C@@H](c1ccc2ncccc2c1)n1nnc2ccc(-c3cnn(CCO)c3)nc21`
// result 1 to 100 nM

// query Retrieve IC50 measured for `COCCOc1ccncc1Nc1cnc2nnn(Cc3ccc4ncccc4c3)c2n1` and print it.
// result 100 to 1000 nM

// query // fetch IC50 given entry `c1cnc2ccc(Cn3nnc4ncc(Nc5ccc(N6CCOCC6)cn5)nc43)cc2c1`
// result 1 to 100 nM

// query Kindly indicate its recorded IC50. Item: `COc1ccc(Nc2ccc3nnn(Cc4ccc5ncccc5c4)c3n2)nc1`
// result 100 to 1000 nM

// query Supply recorded IC50 for `c1cn2cc(Cn3nnc4ccc(-c5cnn(C6CCOCC6)c5)nc43)ccc2n1` here.
// result 100 to 1000 nM

// query Supply IC50 value. Item: `COCCn1cc(-c2cnc3nnn(Cc4ccc5nccn5c4)c3n2)cn1`
// result 1 to 100 nM

// query Annotate the compound `c1ccc(Oc2cnc3nnn(Cc4ccc5ncccc5c4)c3n2)nc1` with its measured IC50.
// result 100 to 1000 nM

Source: patent US11896592B2
